# PROTOCOL_DETAILS: Half life in human hepatocytes
# Type: ADME, cell-based, Hepatocyte

COMPOUND: COc1cccc(Oc2ccc3c(c2)CC(N)c2n[nH]c(=O)n2-3)c1 (stereo unspecified)
half-life / h: 1.9

###

# System: P-gp
# PROTOCOL_DETAILS: Efflux ratio in MDCK cells overexpressing Pgp
# Type: ADME, cell-based, Canis lupus familiaris
# EXPERIMENTAL_CONDITIONS: dog, MDCK-MDR1

MOLECULE: COc1cccc(Oc2ccc3c(c2)CC(N)c2n[nH]c(=O)n2-3)c1 (stereo unspecified)
efflux ratio: 1.51

###

# TESTED_SYSTEM: Kynurenine/alpha-aminoadipate aminotransferase, mitochondrial (Homo sapiens)
# Sequence (Q8N5Z0 whole entry): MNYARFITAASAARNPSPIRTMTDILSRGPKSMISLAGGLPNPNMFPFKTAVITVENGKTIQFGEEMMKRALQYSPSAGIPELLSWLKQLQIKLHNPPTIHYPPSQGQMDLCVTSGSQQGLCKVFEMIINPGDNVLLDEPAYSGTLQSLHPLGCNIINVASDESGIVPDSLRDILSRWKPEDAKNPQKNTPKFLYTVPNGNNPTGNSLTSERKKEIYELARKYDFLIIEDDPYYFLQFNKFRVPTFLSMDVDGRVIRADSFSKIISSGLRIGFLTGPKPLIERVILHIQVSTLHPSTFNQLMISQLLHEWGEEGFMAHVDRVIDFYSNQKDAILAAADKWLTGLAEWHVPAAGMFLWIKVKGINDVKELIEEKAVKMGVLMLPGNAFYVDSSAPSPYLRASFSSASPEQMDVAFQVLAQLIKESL
Listing: Ki of selected molecules

MOLECULE: COc1cccc(Oc2ccc3c(c2)CC(N)c2nncn2-3)c1 (configuration not stated)
Ki: 81.5 nM

MOLECULE: COc1cccc(Oc2ccc3c(c2)CC(N)c2n[nH]c(=O)n2-3)c1 (configuration not stated)
Ki: 5.1 nM
